# Study Target: UniProt O14842
# Test Description: Assay I: IP1 accumulation (IPOne HTRF) in 1321N1 cells stably expressing human GPR40
# Format: cell-based
# Condition Info: 1321N1 cells expressing human GPR40, stimulation 1 hour at 37° C., 10% CO2, final LiCl 50 mM
Assay Metric: pEC50
Answer as the number alone; pEC50 is minus log10 of concentration in mol/L.

Cc1cc(OCC2CN(S(=O)(=O)C(C)C)C2)cc(C)c1-c1ccc(F)c2c1CC[C@H]2Oc1ccc2c(c1)OC[C@H]2CC(=O)O    7.77

Hello, I am looking for reported pEC50 with UniProt O14842 for `Cc1cc(OCC(C)(C)CO)cc(C)c1-c1ccc(F)c2c1CC[C@H]2Oc1ccc2c(c1)OC[C@H]2CC(=O)O` . Could you help? 8.30

Next molecule up: `Cc1cc(OCCS(C)(=O)=O)cc(C)c1-c1ccc(F)c2c1CC[C@H]2Oc1ccc2c(c1)OC[C@H]2CC(=O)O` 7.66

Continue with Cc1cc(OCC[S+](C)[O-])cc(C)c1-c1ccc(F)c2c1CC[C@H]2Oc1ccc2c(c1)OC[C@H]2CC(=O)O (stereo partly drawn) 7.72

Same question for `Cc1cc(OCC(N)=O)cc(C)c1-c1ccc(F)c2c1CC[C@H]2Oc1ccc2c(c1)OC[C@H]2CC(=O)O` please. 7.85

Entry `Cc1cc(OCCN2CCCC2=O)cc(C)c1-c1ccc(F)c2c1CC[C@H]2Oc1ccc2c(c1)OC[C@H]2CC(=O)O` please 8.00

Can you check Cc1cc(OCC2CCCO2)cc(C)c1-c1ccc(F)c2c1CC[C@H]2Oc1ccc2c(c1)OC[C@H]2CC(=O)O (stereo partly drawn) next? 8.22

Another: `Cc1cc(OCc2ccnn2C)cc(C)c1-c1ccc(F)c2c1CC[C@H]2Oc1ccc2c(c1)OC[C@H]2CC(=O)O` 8.52

Same lookup for `Cc1cc(OC(C)(C)C#N)cc(C)c1-c1ccc(F)c2c1CC[C@H]2Oc1ccc2c(c1)OC[C@H]2CC(=O)O` , please. 8.05

Another molecule: `Cc1cc(C2=CCOCC2)cc(C)c1-c1ccc(F)c2c1CC[C@H]2Oc1ccc2c(c1)OC[C@H]2CC(=O)O` 8.52

Let us now turn to `Cc1cc(C(=O)N2CCOCC2)cc(C)c1-c1ccc(F)c2c1CC[C@H]2Oc1ccc2c(c1)OC[C@H]2CC(=O)O` 7.42

---

# Study Target: human GPR40 receptor (Homo sapiens, UniProt O14842)
# Sequence (O14842 whole entry): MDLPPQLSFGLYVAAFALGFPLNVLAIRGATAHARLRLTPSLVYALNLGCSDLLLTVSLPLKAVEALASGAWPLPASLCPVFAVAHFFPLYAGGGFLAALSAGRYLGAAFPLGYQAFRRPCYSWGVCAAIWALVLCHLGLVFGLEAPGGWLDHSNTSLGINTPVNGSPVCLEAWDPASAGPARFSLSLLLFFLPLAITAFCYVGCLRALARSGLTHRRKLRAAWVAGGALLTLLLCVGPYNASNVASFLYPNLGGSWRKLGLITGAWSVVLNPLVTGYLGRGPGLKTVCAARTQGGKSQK
# Test Description: Assay II: IP1 accumulation (IPOne HTRF) in 1321N1 cells stably expressing human GPR40
# Format: cell-based
# Condition Info: 1321N1 cells expressing human GPR40, stimulation 1 h at 37° C., 5% CO2, LiCl 50 mM
Assay Metric: pEC50
Scale: pEC50 equals -log10([C]), with [C] in mol/L.

Examples with their reported pEC50 follow.
Cc1cc(-c2nnn(CC(C)(C)O)n2)cc(C)c1-c1ccc(F)c2c1CC[C@H]2Oc1ccc2c(c1)OC[C@H]2CC(=O)O    8.52
Cc1cc(OCCN2CCCS2(=O)=O)cc(C)c1-c1ccc(F)c2c1CC[C@H]2Oc1ccc2c(c1)OC[C@H]2CC(=O)O    7.89
Cc1cc(-c2cc(C)c(-c3ccc(F)c4c3CC[C@H]4Oc3ccc4c(c3)OC[C@H]4CC(=O)O)c(C)c2)nc(C)n1    8.70
Cc1cc(OCc2cnn(C)c2)cc(C)c1-c1ccc(F)c2c1CC[C@H]2Oc1ccc2c(c1)OC[C@H]2CC(=O)O    7.72
Cc1cc(OCc2ccn(C)n2)cc(C)c1-c1ccc(F)c2c1CC[C@H]2Oc1ccc2c(c1)OC[C@H]2CC(=O)O    7.82
Cc1cc(C(=O)NCC(C)(C)O)cc(C)c1-c1ccc(F)c2c1CC[C@H]2Oc1ccc2c(c1)OC[C@H]2CC(=O)O    7.89
Cc1cc(O[C@@H]2CCN(S(C)(=O)=O)C2)cc(C)c1-c1ccc(F)c2c1CC[C@H]2Oc1ccc2c(c1)OC[C@H]2CC(=O)O    7.77
Cc1cc(OC2CCC(C)(O)C2)cc(C)c1-c1ccc(F)c2c1CC[C@H]2Oc1ccc2c(c1)OC[C@H]2CC(=O)O (single isomer, unassigned) [Example 78]    8.40

# next compound below
Consider the compound shown here: `Cc1cc(OCc2ncco2)cc(C)c1-c1ccc(F)c2c1CC[C@H]2Oc1ccc2c(c1)OC[C@H]2CC(=O)O` What is its recorded pEC50? 7.89

---

Readings of pEC50 for the listed molecules
# Study Target: human GPR40 receptor (Homo sapiens, UniProt O14842)
# Test Description: Assay II: IP1 accumulation (IPOne HTRF) in 1321N1 cells stably expressing human GPR40
# Type: cell-based
# Condition Info: 1321N1 cells expressing human GPR40, stimulation 1 h at 37° C., 5% CO2, LiCl 50 mM
The read-out pEC50 is expressed as -log10 of concentration in moles per litre.

These recorded examples may help you get a feel for the data.
Cc1cc(-c2cccnc2)cc(C)c1-c1ccc(F)c2c1CC[C@H]2Oc1ccc2c(c1)OC[C@H]2CC(=O)O    8.30
Cc1cc(-c2nnnn2C)cc(C)c1-c1ccc(F)c2c1CC[C@H]2Oc1ccc2c(c1)OC[C@H]2CC(=O)O    7.70
Cc1ccc(-c2cc(C)c(-c3ccc(F)c4c3CC[C@H]4Oc3ccc4c(c3)OC[C@H]4CC(=O)O)c(C)c2)nc1    8.52

Please look up its pEC50: `Cc1cc(-c2cc(=O)n(C)cn2)cc(C)c1-c1ccc(F)c2c1CC[C@H]2Oc1ccc2c(c1)OC[C@H]2CC(=O)O` 8.52

# iterate: `Cc1cc(-c2cc(C)c(-c3ccc(F)c4c3CC[C@H]4Oc3ccc4c(c3)OC[C@H]4CC(=O)O)c(C)c2)cc(C)n1` 8.70

Query `Cc1cc(OCC(C)(C)C#N)cc(C)c1-c1ccc(F)c2c1CC[C@H]2Oc1ccc2c(c1)OC[C@H]2CC(=O)O` next 8.10

Entry `Cn1nnnc1-c1c(F)cccc1-c1ccc(F)c2c1CC[C@H]2Oc1ccc2c(c1)OC[C@H]2CC(=O)O` please 5.84

Please answer likewise for `O=C(O)C[C@@H]1COc2cc(O[C@@H]3CCc4c(-c5cccnc5-c5ccccc5)ccc(F)c43)ccc21` 7.23

---

# Study Target: human GPR40 receptor (Homo sapiens, UniProt O14842)
# Test Description: Assay I: IP1 accumulation (IPOne HTRF) in 1321N1 cells stably expressing human GPR40
# Type: cell-based
# Condition Info: 1321N1 cells expressing human GPR40, stimulation 1 hour at 37° C., 10% CO2, final LiCl 50 mM
Note to self: EC50 under 7 nM means satisfied, ties and anything higher get not satisfied.

Cc1cc(O[C@H]2CCOC2)cc(C)c1-c1ccc(F)c2c1CC[C@H]2Oc1ccc2c(c1)OC[C@H]2CC(=O)O    satisfied
CNC(=O)COc1cc(C)c(-c2ccc(F)c3c2CC[C@H]3Oc2ccc3c(c2)OC[C@H]3CC(=O)O)c(C)c1    not satisfied
Cc1cc(O[C@H]2C[C@@H](N(C)S(C)(=O)=O)C2)cc(C)c1-c1ccc(F)c2c1CC[C@H]2Oc1ccc2c(c1)OC[C@H]2CC(=O)O    not satisfied

Just wondering, is EC50 of `Cc1cc(OC2CCOCC2)cc(C)c1-c1ccc(F)c2c1CC[C@H]2Oc1ccc2c(c1)OC[C@H]2CC(=O)O` below 7 nM? satisfied

---

The following compounds are shown together with reported pEC50 values.
# Study Target: UniProt O14842
# Test Description: Assay II: IP1 accumulation (IPOne HTRF) in 1321N1 cells stably expressing human GPR40
# Format: cell-based
# Condition Info: 1321N1 cells expressing human GPR40, stimulation 1 h at 37° C., 5% CO2, LiCl 50 mM
Value format note: pEC50 is -log10 of concentration (mol/L); just state the number.

Solved cases below.
Cc1cncc(-c2cc(C)c(-c3ccc(F)c4c3CC[C@H]4Oc3ccc4c(c3)OC[C@H]4CC(=O)O)c(C)c2)c1    8.40
COc1ccc(-c2cc(C)c(-c3ccc(F)c4c3CC[C@H]4Oc3ccc4c(c3)OC[C@H]4CC(=O)O)c(C)c2)nc1    8.15

Returns the measured pEC50 for the input compound. Input: `Cc1cc(-c2cnn(CC(C)(C)O)c2)cc(C)c1-c1ccc(F)c2c1CC[C@H]2Oc1ccc2c(c1)OC[C@H]2CC(=O)O` 8.22

Likewise for `Cc1cc(OCCNS(C)(=O)=O)cc(C)c1-c1ccc(F)c2c1CC[C@H]2Oc1ccc2c(c1)OC[C@H]2CC(=O)O` ? 7.55

Next up: `Cc1cc(-c2cn(C)c(C)n2)cc(C)c1-c1ccc(F)c2c1CC[C@H]2Oc1ccc2c(c1)OC[C@H]2CC(=O)O` 8.70

Proceed to `Cc1cc(CCCS(C)(=O)=O)cc(C)c1-c1ccc(F)c2c1CC[C@H]2Oc1ccc2c(c1)OC[C@H]2CC(=O)O` 7.22

Same thing, different compound: `Cc1cc(-c2cc(C)c(-c3ccc(F)c4c3CC[C@H]4Oc3ccc4c(c3)OC[C@H]4CC(=O)O)c(C)c2)cnn1` 8.30

Next entry: `Cc1cc(-c2ccnnc2)cc(C)c1-c1ccc(F)c2c1CC[C@H]2Oc1ccc2c(c1)OC[C@H]2CC(=O)O` 8.30

Next: `Cc1cc(OCc2ccn(C)c(=O)c2)cc(C)c1-c1ccc(F)c2c1CC[C@H]2Oc1ccc2c(c1)OC[C@H]2CC(=O)O` 8.15

Moving on to the next compound: `COCc1cc(OCC2(C)COC2)cc(COC)c1-c1ccc(F)c2c1CC[C@H]2Oc1ccc2c(c1)OC[C@H]2CC(=O)O` 7.85

Now the same for `Cc1cc(OCCCCS(C)(=O)=O)cc(C)c1-c1ccc(F)c2c1CC[C@H]2Oc1ccc2c(c1)OC[C@H]2CC(=O)O` 7.66

Thanks! And Cc1cc(OC[C@@H]2CCS(=O)(=O)C2)cc(C)c1-c1ccc(F)c2c1CC[C@H]2Oc1ccc2c(c1)OC[C@H]2CC(=O)O (single isomer, unassigned) ? 8.15

Repeat with `Cc1cc(-c2ccncc2)cc(C)c1-c1ccc(F)c2c1CC[C@H]2Oc1ccc2c(c1)OC[C@H]2CC(=O)O` 8.15

For `Cc1cc(OCC2(O)CCSCC2)cc(C)c1-c1ccc(F)c2c1CC[C@H]2Oc1ccc2c(c1)OC[C@H]2CC(=O)O` then? 8.00

Data origin: patent US8642585B2
